- ASSAY_TEXT: Cell Viability - LYMP2-016 (AID 984);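 note: cells exposed to compound for 24 hours at 37 °C; nearly all actives have a fitted effect of over 55% in size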
- REPORTED_CONDITIONS: LYMP2-016 lymphoblastoid cell viability, qHTS; series mostly up to 92.2 µM
Records with an inconclusive call do not appear. The source made the active and inactive calls. Calls come from the whole dose curve; as a rule, active = well fitted cell-killing curve with a large enough effect; inconclusive = small, poorly fitted or top-dose-only effect; inactive = flat fitted curve, though single readings scatter.
Response enum: active, inactive

Known results for compounds:
COMPOUND	CLASS_ASSIGNMENT
Cc1ccc(S(=O)(=O)O)cc1C	inactive
O=c1n(CC2CO2)c(=O)n(CC2CO2)c(=O)n1CC1CO1 (stereo not given)	active
OCl	inactive
c1ccc2ccccc2c1	inactive
CC1=CC(=O)NS(=O)(=O)O1	inactive

Input: Can you look up the reported call for `NC(N)=O` for me?
Output: inactive

Input: Can you look up the reported call for `COC(=O)c1ccccc1O` for me?
Output: inactive

====

- ASSAY_TEXT: Stat Signaling Pathway (AID 446);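 note: ME-180 cervical cancer cells given 40 pM IL-6 alongside compound; SIE-controlled beta-lactamase reporter measured as 460/530 nm FRET emission ratio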
- REPORTED_CONDITIONS: ME-180 (cervical carcinoma) SIE beta-lactamase reporter, IL-6 stimulated, 5 h; series mostly up to 17.2 µM
Records with an inconclusive call do not appear. The source made the active and inactive calls. The call rests on the fitted dose curve; in most records, active means well fitted curve in either direction with a large enough effect (not every such curve was filed as active); inconclusive means small, poorly fitted or top-dose-only effect, or another doubt; inactive means flat fitted curve, though single readings scatter.
METRIC_NAME: outcome

Some solved cases for reference:
COMPOUND	READING
Cc1cc(C)c(NC(=O)C[C@H](CC(=O)O)c2cccc3ccccc23)c(C(=O)N2CCC3(CCCC3)CC2)c1	inactive
COc1cc(S(C)=O)ccc1-c1nc2ncccc2[nH]1 (stereo not drawn)	inactive
CC(=O)Oc1cc(C(F)(F)F)ccc1C(=O)O	inactive
CN(CCO)CC(O)Cn1cnc2c1c(=O)n(C)c(=O)n2C (stereo not drawn) (tested in a mixture with another compound)	inactive

Input: outcome for `CNC(=O)c1c(I)c(C(=O)NCC(=O)Nc2c(I)c(C(=O)O)c(I)c(C(=O)NCCO)c2I)c(I)c(N(C)C(C)=O)c1I` ?
Output: inactive

Input: outcome for `CCSc1ccc2c(c1)N(CCCN1CCN(C)CC1)c1ccccc1S2` ?
Output: inactive

Input: outcome for `CN1CCc2c(c3ccccc3n2Cc2ccccc2)C1` ?
Output: inactive

Input: outcome for `CCCOc1cc(N)ccc1C(=O)OCCN(CC)CC` ?
Output: inactive

====

- ASSAY_TEXT: qHTS assay to identify small molecule inhibitors of chordoma cells - UCH-1 (AID 1259355); note: nearly all actives have a fitted effect of over 55% in size
- REPORTED_CONDITIONS: UCH-1 chordoma viability, CellTiter-Glo, 48 h, combination, with auranofin plus four topoisomerase inhibitors; series mostly up to 46.1 µM
Results filed as inconclusive are left out. The source made the active and inactive calls. Calls come from the whole dose curve; as a rule, active = well fitted cell-killing curve with a large enough effect; inconclusive = small, poorly fitted or top-dose-only effect, or effect the other way; inactive = no such curve, though single readings can be large or run the other way.
Response enum: active, inactive

COMPOUND	CLASS_ASSIGNMENT
O=C(O[C@H]1CN2CCC1CC2)N1CCc2ccccc2[C@@H]1c1ccccc1	inactive
CN(C)CCC(O)(c1ccccc1)c1ccccc1Cl (centres undefined)	inactive
O=C1c2ccccc2C(=O)C1c1ccc(Cl)cc1	inactive
CC[C@@H](C(=O)[C@@H](C)[C@@H](O)[C@H](C)[C@@H]1O[C@@H]([C@@H](CC)C(=O)O)CC[C@@H]1C)[C@H]1O[C@]2(C=C[C@@H](O)[C@]3(CC[C@@](C)([C@H]4CC[C@](O)(CC)[C@H](C)O4)O3)O2)[C@H](C)C[C@@H]1C	active
COc1ccc(-c2noc(CC(=O)O)c2-c2ccc(OC)cc2)cc1	inactive
O=[N+]([O-])c1c(Cl)cccc1-c1c[nH]cc1Cl	inactive
O=C1c2ccccc2C(=O)C1c1ccc(F)cc1	inactive
CCN(CC)CCOC(=O)c1cccnc1	inactive

Below: the item to evaluate.
Input: Can you look up the reported call for `CO[C@H]1C[C@H](O[C@@H]2/C(C)=C/C[C@@H]3C[C@@H](C[C@]4(CC[C@H](C)[C@@H](C5CCCCC5)O4)O3)OC(=O)[C@@H]3C=C(C)/C(=N/O)[C@H]4OC/C(=C\C=C\[C@@H]2C)[C@]43O)O[C@@H](C)[C@@H]1O` for me?
Output: inactive

====

- Tested on: CP335
- ASSAY_TEXT: qHTS profiling for inhibitors of Plasmodium falciparum proliferation (AID 504749);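 note: 0% = DMSO vehicle and full inhibition = artemisinin control; nearly all actives have a fitted effect of over 60% in size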
- REPORTED_CONDITIONS: P. falciparum in erythrocytes, SYBR Green DNA, 72 h; series mostly up to 28.7 µM
Inconclusive results are not listed. Calls of active or inactive are those of the source. Calls come from the whole dose curve; as a rule, active = well fitted inhibition curve with a large enough effect; inconclusive = small, poorly fitted or top-dose-only effect; inactive = flat fitted curve, though single readings scatter.
Response enum: 1 (active), -1 (inactive)

Known results for compounds:
COMPOUND	CLASS_ASSIGNMENT
C[Si](C)(C)O[Si](C)(C)C	-1
CCCCCCOC(=O)c1cccnc1	-1
CO[C@H]1C[C@@H]2CC[C@@H](C)[C@@](O)(O2)C(=O)C(=O)N2CCCC[C@H]2C(=O)O[C@H]([C@H](C)C[C@@H]2CC[C@@H](OC(=O)C(C)(CO)CO)[C@H](OC)C2)CC(=O)[C@H](C)/C=C(\C)[C@@H](O)[C@@H](OC)C(=O)[C@H](C)C[C@H](C)/C=C/C=C/C=C/1C	-1

Input: Can you look up the reported call for `O=C(O)Cc1nn(Cc2ccc(Br)cc2F)c(=O)c2ccccc12` for me?
Output: -1

Input: Can you look up the reported call for `CC(=O)Oc1cc(C(F)(F)F)ccc1C(=O)O` for me?
Output: -1

====

- ASSAY_TEXT: P-glycoprotein substrates identified in KB-8-5-11 adenocarcinoma cell line, qHTS therapeutic library screen (AID 1346987); note: nearly all actives have a fitted effect of over 65% in size
- REPORTED_CONDITIONS: KB-8-5-11 (P-gp overexpressing) viability, CellTiter-Glo, 72 h; series mostly up to 44.5 µM
Inconclusive results are not listed. Calls of active or inactive are those of the source. Calls follow the shape of the dose curve; as a rule, active = well fitted inhibition curve with a large enough effect; inconclusive = small, poorly fitted or top-dose-only effect; inactive = flat fitted curve, though single readings scatter. Where a SMILES comes first, the peptide text is derived from it. [ ]: non-standard residue; d: D form. pGlu = O=C1CC[C@@H](C(=O)O)N1
Response enum: y (active), n (inactive)

COMPOUND	CLASS_ASSIGNMENT
CC(=O)[O][Al][O]C(C)=O	n

Input: Can you look up the reported call for `CC(C)(C)CC(C)(C)c1ccc(OCCO)cc1` for me?
Output: y

Input: Can you look up the reported call for CC[C@H](C)[C@H](NC(=O)[C@H](Cc1ccccc1)NC(=O)[C@H](C)NC(=O)[C@H](CC(=O)O)NC(=O)[C@H](CCCCN)NC(=O)[C@H](CO)NC(=O)[C@@H]1CCCN1C(=O)[C@@H]1CCC(=O)N1)C(=O)NCC(=O)N[C@@H](CC(C)C)C(=O)N[C@@H](CCSC)C(N)=O ([pGlu]PSKDAFIGLM-NH2) for me?
Output: n

Input: Can you look up the reported call for `O=C[C@H](O)[C@@H](O)[C@@H](O)[C@H](O)CO` for me?
Output: n

Input: Can you look up the reported call for `O=C(OCc1ccccc1)c1cccnc1` for me?
Output: n

Input: Can you look up the reported call for O=C1N=C2SCCN2C(=O)C1Cc1ccc(Cl)cc1 (configuration not stated) for me?
Output: n

Input: Can you look up the reported call for CC1CS(=O)(=O)CCN1/N=C/c1ccc([N+](=O)[O-])o1 (configuration not stated) for me?
Output: n

Input: Can you look up the reported call for CC(C)CCCC(C)NC(C)C (configuration not stated) for me?
Output: n

Input: Can you look up the reported call for `Cn1cc(NC(=O)c2cc(NC(=O)c3cc(NC=O)cn3C)cn2C)cc1C(=O)NCCC(=N)N` for me?
Output: n

Input: Can you look up the reported call for `CC(C)O` for me?
Output: n

====

- ASSAY_TEXT: qHTS assay to identify small molecule inhibitors of chordoma cells - UCH-2 (AID 1259356)
- REPORTED_CONDITIONS: UCH-2 chordoma viability, CellTiter-Glo ATP luminescence, 48 h; series mostly up to 46.1 µM
Inconclusive results are not listed. The source made the active and inactive calls. Calls come from the whole dose curve; as a rule, active = well fitted cell-killing curve with a large enough effect; inconclusive = small, poorly fitted or top-dose-only effect; inactive = flat fitted curve, though single readings scatter.
Response enum: active, inactive

MOLECULE	CLASS_ASSIGNMENT
CN1C(=O)OC(C)(C)C1=O	inactive
O=C1c2ccccc2C(=O)C1c1ccc(Cl)cc1	inactive
CCCCC	inactive
C=C1[C@@H]2CC[C@@H](C2)C1(C)C	inactive
Cn1c(O)c(N=NC(N)=S)c2ccccc21	inactive

Input: Can you look up the reported call for CC(=O)O[C@@H]1CC2CCC1(C)C2(C)C (some centres undefined) for me?
Output: inactive

Input: Can you look up the reported call for `O=[N+]([O-])O[C@@H]1CO[C@H]2[C@@H]1OC[C@@H]2O` for me?
Output: inactive

Input: Can you look up the reported call for CC1(C)S[C@@H]2[C@H](N3C(=O)C(c4ccccc4)NC3(C)C)C(=O)N2[C@H]1C(=O)O (some centres undefined) for me?
Output: inactive

Input: Can you look up the reported call for `COc1ccc(C(=O)CCC(=O)O)c2ccccc12` for me?
Output: inactive

Input: Can you look up the reported call for `CCCC(=O)O` for me?
Output: inactive

Input: Can you look up the reported call for COc1ccc2c(c1)OC(C)(C)C(c1ccccc1)C2c1ccc(OCCN2CCCC2)cc1 (centres undefined) for me?
Output: inactive

Input: Can you look up the reported call for `CCN(CC)CCOCCOC(=O)C(CC)(CC)c1ccccc1` for me?
Output: inactive

Input: Can you look up the reported call for C[C@@H]1NC(=O)[C@@H](N)CNC(=O)[C@H](C2CCNC(N)=N2)NC(=O)/C(=C/NC(N)=O)NC(=O)[C@H](CNC(=O)C[C@@H](N)CCCN)NC1=O (some centres undefined) for me?
Output: inactive

Input: Can you look up the reported call for `CC/C=C\C/C=C\C/C=C\CCCCCCCC(=O)O` for me?
Output: inactive

Input: Can you look up the reported call for `C[C@H](NCCc1ccc(O)cc1)[C@H](O)c1ccc(O)cc1` for me?
Output: inactive

Input: Can you look up the reported call for `CO[C@H]1C[C@H](O[C@@H]2/C(C)=C/C[C@@H]3C[C@@H](C[C@]4(CC[C@H](C)[C@@H](C5CCCCC5)O4)O3)OC(=O)[C@@H]3C=C(C)/C(=N/O)[C@H]4OC/C(=C\C=C\[C@@H]2C)[C@]43O)O[C@@H](C)[C@@H]1O` for me?
Output: inactive

Input: Can you look up the reported call for `CCOC(=O)Oc1c(OC)cc(C(=O)O[C@@H]2C[C@@H]3CN4CCc5c([nH]c6cc(OC)ccc56)[C@H]4C[C@@H]3[C@H](C(=O)OC)[C@H]2OC)cc1OC` for me?
Output: inactive

Input: Can you look up the reported call for `O=C(c1cc2ccccc2o1)N1CCN(Cc2ccccc2)CC1` for me?
Output: inactive

Input: Can you look up the reported call for `O=C(O)c1ccc(NC(=O)[C@H](Cc2ccc(O)cc2)NC(=O)c2ccccc2)cc1` for me?
Output: inactive

Input: Can you look up the reported call for `CC(C)(CO)[C@@H](O)C(=O)NCCCC(=O)O` for me?
Output: inactive

Provenance of the data: PubChem BioAssay (NCATS)
